The measured values listed here are drawn from patent US20130273029A1.

biological target: Human HER3, endogenous, on human cancer cell lines (SK-Br-3, MCF7, BT-474) (human, UniProt P21860 20-1342); experiment: cell-based or functional assay
Sequence (P21860 20-1342): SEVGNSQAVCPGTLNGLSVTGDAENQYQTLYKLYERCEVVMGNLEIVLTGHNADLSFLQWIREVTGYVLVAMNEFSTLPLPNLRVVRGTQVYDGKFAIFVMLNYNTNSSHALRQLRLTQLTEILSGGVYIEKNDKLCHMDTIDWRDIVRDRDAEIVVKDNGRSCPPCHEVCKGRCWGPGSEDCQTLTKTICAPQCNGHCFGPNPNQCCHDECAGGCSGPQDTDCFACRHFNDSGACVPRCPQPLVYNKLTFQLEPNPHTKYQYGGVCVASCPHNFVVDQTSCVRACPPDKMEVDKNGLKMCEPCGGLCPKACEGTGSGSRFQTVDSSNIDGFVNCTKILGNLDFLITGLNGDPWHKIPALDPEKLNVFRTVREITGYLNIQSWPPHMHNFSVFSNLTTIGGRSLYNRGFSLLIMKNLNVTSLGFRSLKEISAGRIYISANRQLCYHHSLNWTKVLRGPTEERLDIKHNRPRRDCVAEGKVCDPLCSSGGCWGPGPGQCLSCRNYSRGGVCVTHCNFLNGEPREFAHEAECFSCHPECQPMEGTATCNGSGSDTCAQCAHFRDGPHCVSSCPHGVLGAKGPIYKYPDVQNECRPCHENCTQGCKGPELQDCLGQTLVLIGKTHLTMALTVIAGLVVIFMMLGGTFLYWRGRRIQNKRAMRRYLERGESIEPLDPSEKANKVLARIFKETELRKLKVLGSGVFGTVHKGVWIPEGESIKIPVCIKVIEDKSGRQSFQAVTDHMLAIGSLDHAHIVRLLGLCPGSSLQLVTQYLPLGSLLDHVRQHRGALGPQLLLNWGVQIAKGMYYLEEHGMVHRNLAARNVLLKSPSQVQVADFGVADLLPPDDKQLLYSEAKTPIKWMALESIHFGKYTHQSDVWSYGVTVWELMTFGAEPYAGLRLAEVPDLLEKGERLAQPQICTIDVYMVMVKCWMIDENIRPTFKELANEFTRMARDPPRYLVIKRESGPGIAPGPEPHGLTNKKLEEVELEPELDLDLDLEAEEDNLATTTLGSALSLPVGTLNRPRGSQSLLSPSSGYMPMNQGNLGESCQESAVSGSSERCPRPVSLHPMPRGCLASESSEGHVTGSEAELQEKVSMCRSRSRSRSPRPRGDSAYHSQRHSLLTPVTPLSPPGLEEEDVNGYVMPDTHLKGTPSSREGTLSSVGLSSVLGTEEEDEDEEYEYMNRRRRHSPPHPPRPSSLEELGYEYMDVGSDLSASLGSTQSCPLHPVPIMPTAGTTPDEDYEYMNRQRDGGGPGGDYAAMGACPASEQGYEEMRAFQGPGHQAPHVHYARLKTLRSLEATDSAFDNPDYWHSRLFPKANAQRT
Measure: SK-Br-3 proliferation % inhibition
Your reply should be a number followed by the unit it is expressed in.

[in] May I ask what SK-Br-3 proliferation % inhibition has been recorded for MOR12616 (antibody, human IgG1, kappa, V domains shown, tested as IgG) VH: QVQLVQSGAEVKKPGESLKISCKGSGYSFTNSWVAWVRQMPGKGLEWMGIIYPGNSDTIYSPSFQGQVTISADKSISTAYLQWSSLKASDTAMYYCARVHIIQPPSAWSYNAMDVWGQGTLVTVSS VL: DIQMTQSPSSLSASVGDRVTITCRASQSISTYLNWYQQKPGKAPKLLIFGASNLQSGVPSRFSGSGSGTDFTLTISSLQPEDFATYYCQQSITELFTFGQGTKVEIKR ?
[out] 48%
